# Tested on: NCI-H292 lung cancer cells
# method summary: FDA drug screening, complete media vs cholesterol-free media without statin (TABLE 1)
# Assay type: cell-based, human
# measurement conditions: complete vs cholesterol-free media; greater than 0 enhanced anti-cancer activity, about 0 neutral, below 0 antagonists
Where a name gives a salt, the structure may show the parent alone.
This section presents molecules with their documented Difference values.

Task: Could you tell me which Difference is on file for COC(=O)[C@H]1[C@H]2C[C@@H]3c4[nH]c5cc(OC)ccc5c4CCN3C[C@H]2C[C@@H](OC(=O)c2cc(OC)c(OC)c(OC)c2)[C@@H]1OC [Reserpine (hydrochloride)] ?
Result: −0.32

Task: Entry Nc1c(Br)cc(Br)cc1CN[C@H]1CC[C@H](O)CC1 [Ambroxol (hydrochloride)] : reported Difference = ?
Result: −0.45

Continuing:
Task: What value of Difference has been recorded for this entry: OC[C@@H](O)[C@@H](O[C@H]1O[C@H](CO)[C@@H](O)[C@H](O)[C@H]1O)[C@H](O)[C@@H](O)CO
Result: −0.38

----------
# Tested on: NCI-H292 lung cancer cells
# method summary: FDA drug screening, complete media vs cholesterol-free media without statin (TABLE 1)
# Type: cell-based, human
# measurement conditions: NCI-H292 cells, cholesterol-free media without statin
Structures can show the parent of a compound that is named as a salt.
Labelling field: enter MET if recorded Cholesterol-free is less than 1. Enter NOT MET if it equals or exceeds that cut-off.

Solved cases below.
Task: # strict comparison: is reported Cholesterol-free < 1? input = Cc1ccc(C(C)C)c(O)c1 [Thymol]
Result: NOT MET

Task: Bench note: check whether Nc1ccn([C@@H]2O[C@H](CO)[C@@H](O)[C@H]2O)c(=O)n1 [Cytidine] shows Cholesterol-free below 1
Result: NOT MET

Task: Hi there! Is Cholesterol-free for CC[C@H](C)C(=O)N1CCC(NC(=O)Nc2ccc(OC(F)(F)F)c(F)c2)CC1 [EC5026] below 1, do you know?
Result: NOT MET

Task: Strictly below 1 in Cholesterol-free? CCCCN(CCCC)CCC(O)c1cc2c(Cl)cc(Cl)cc2c2cc(C(F)(F)F)ccc12 (stereo not shown) [Halofantrine hydrochloride]
Result: NOT MET

Task: hey, is Cholesterol-free for COc1cc2ncnc(Nc3ccc(F)c(Cl)c3)c2cc1OCCCN1CCOCC1 [Gefitinib] lower than 1 or not?
Result: MET

Here is another compound to look at.
Task: Dear reviewer, please state whether O=C(CCCN1CC=C(n2c(=O)[nH]c3ccccc32)CC1)c1ccc(F)cc1 [Droperidol] has Cholesterol-free strictly beneath 1.
Result: NOT MET

----------
Below: a set of entries, each annotated with reported Cholesterol-free media + simvastatin (0.04 μM).
# Tested on: NCI-H292 lung cancer cells
# method summary: FDA drug screening, complete media vs cholesterol-free media with simvastatin (TABLE 2)
# Assay type: cell-based, human
# measurement conditions: NCI-H292 cells, cholesterol-free media with simvastatin 0.04 μM; […]

Task: Entry CCCC(=O)O[C@]1(C(=O)CCl)[C@H](C)C[C@@H]2[C@@H]3CCC4=CC(=O)C=C[C@]4(C)[C@]3(F)C(=O)C[C@@]21C [Clobetasone butyrate] has what Cholesterol-free media + simvastatin (0.04 μM)?
Result: 0.5437

Task: Look up Cholesterol-free media + simvastatin (0.04 μM): CCCCCCCCCCCCCCCC[n+]1ccccc1.[Cl-] [Cetylpyridinium (chloride)]
Result: 0.218

Task: Please give the measured Cholesterol-free media + simvastatin (0.04 μM) for this molecule: CC1=C(C)C(=O)C(CCCCCCCCCC[P+](c2ccccc2)(c2ccccc2)c2ccccc2)=CC1=O.[Br-] [Visomitin]
Result: 0.1378

New cases:
Task: Give its Cholesterol-free media + simvastatin (0.04 μM) value. Item: O=C(Nc1ccccc1)c1ccccc1O [Salicylanilide]
Result: 1.321
